assayed.system: OATP1A1 (Rattus norvegicus)
Sequence (P46720 whole entry): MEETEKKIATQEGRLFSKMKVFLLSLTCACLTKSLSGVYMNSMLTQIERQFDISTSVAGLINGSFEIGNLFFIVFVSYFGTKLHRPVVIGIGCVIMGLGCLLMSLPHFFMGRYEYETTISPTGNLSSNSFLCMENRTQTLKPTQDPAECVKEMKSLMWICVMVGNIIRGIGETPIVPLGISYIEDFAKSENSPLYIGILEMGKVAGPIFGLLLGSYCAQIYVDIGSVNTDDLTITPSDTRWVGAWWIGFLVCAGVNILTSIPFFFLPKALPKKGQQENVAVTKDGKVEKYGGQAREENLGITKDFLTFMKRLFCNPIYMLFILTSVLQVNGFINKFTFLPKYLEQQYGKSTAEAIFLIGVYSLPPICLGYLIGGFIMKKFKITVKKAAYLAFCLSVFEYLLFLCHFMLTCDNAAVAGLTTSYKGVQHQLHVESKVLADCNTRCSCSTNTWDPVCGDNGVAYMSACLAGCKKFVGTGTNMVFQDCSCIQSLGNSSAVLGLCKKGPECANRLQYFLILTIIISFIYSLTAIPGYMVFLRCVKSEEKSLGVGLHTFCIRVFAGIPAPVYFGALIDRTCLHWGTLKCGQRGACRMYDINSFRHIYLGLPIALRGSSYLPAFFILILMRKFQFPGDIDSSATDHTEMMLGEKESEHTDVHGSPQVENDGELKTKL
protocol.notes: Drug uptake by rat hepatic OATP1A1 transporters expressed in CHO cells at 1 uM relative to wild type CHO cells
Assay type: ADME, cell-based
assay.conditions: CHO cells expressing rat OATP1A1, read-out: FC
This listing pairs molecules with measured uptake ratio at 1 µM.
reported.metric: uptake ratio at 1 µM

mol_smiles=Cc1ncc2n1-c1ccc(Cl)cc1C(c1ccccc1F)=NC2 assayed_system="OATP1A1 (Rattus norvegicus)" endpoint_value=1.6
mol_smiles=Cc1ccc(CNC(=O)c2nn(-c3ccc(F)cc3)c(CC[C@@H](O)C[C@@H](O)CC(=O)O)c2C(C)C)cc1 assayed_system="OATP1A1 (Rattus norvegicus)" endpoint_value=3.6
mol_smiles=CC[C@H](C)C(=O)O[C@H]1C[C@H](O)C=C2C=C[C@H](C)[C@H](CC[C@@H](O)C[C@@H](O)CC(=O)O)[C@H]21 assayed_system="OATP1A1 (Rattus norvegicus)" endpoint_value=2.4
mol_smiles=CC(C)c1nc(N(C)S(C)(=O)=O)nc(-c2ccc(F)cc2)c1/C=C/[C@@H](O)C[C@@H](O)CC(=O)O assayed_system="OATP1A1 (Rattus norvegicus)" endpoint_value=8.2

###

// values below are reported pIC50
System: L6
protocol.notes: Inhibition of cholesterol synthesis in rat L6 cells assessed as reduction of [14C]-cholesterol level using [14C]-acetic acid preincubated for 3 hrs before addition of [14C]-acetic acid by scintillation counting
Assay type: functional, cell-based
pIC50: −log10 of the molar value.
reported.metric: pIC50

mol_smiles=CN(C)S(=O)(=O)c1ccc(CNC(=O)c2nc(-c3ccc(F)cc3)n(CC[C@@H](O)C[C@@H](O)CC(=O)[O-])c2C2CC2)cc1.[Na+] assayed_system=L6 comparison_symbol=< endpoint_value=4.00
mol_smiles=Cc1ccc(CNC(=O)c2nc(-c3ccc(F)cc3)n(CC[C@@H](O)C[C@@H](O)CC(=O)[O-])c2C2CC2)cc1F.[Na+] assayed_system=L6 comparison_symbol== endpoint_value=6.65
mol_smiles=O=C([O-])C[C@H](O)C[C@H](O)CCn1c(-c2ccc(F)cc2)nc(C(=O)NCc2cccc(F)c2)c1C1CC1.[Na+] assayed_system=L6 comparison_symbol== endpoint_value=6.35
mol_smiles=Cc1cccc(CNC(=O)c2nc(-c3ccc(F)cc3)n(CC[C@@H](O)C[C@@H](O)CC(=O)[O-])c2C2CC2)c1.[Na+] assayed_system=L6 comparison_symbol== endpoint_value=6.27
mol_smiles=COc1cccc(CNC(=O)c2nc(-c3ccc(F)cc3)n(CC[C@@H](O)C[C@@H](O)CC(=O)[O-])c2C2CC2)c1.[Na+] assayed_system=L6 comparison_symbol== endpoint_value=6.27
mol_smiles=O=C([O-])C[C@H](O)C[C@H](O)CCn1c(-c2ccc(F)cc2)nc(C(=O)NCc2ccccc2)c1C1CC1.[Na+] assayed_system=L6 comparison_symbol== endpoint_value=6.20
